# credit: patent US11136337B2

The compounds listed here are annotated with their IC50.
- targetUnderTest: human GOAT (Homo sapiens (Human))
- Sequence (Q96T53 whole entry): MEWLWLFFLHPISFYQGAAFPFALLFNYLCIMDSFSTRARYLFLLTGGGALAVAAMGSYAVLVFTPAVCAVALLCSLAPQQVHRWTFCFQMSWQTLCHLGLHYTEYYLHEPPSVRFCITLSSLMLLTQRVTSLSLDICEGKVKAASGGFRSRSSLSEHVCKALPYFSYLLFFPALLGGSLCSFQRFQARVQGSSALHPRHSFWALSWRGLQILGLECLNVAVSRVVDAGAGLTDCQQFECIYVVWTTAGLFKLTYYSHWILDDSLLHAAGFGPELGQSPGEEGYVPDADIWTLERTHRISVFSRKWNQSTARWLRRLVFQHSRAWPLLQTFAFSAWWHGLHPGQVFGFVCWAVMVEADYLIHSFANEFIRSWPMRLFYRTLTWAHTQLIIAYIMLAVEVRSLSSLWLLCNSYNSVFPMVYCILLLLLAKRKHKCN
- experimentSummary: Determination of hGOAT activity in HEK293 cells after incubation with test compound (acyl-ghrelin ELISA)
- reportedConditions: HEK293 cells stably expressing human GOAT and preproghrelin; 5 h incubation with octanoate-BSA; acyl-ghrelin in medium by ELISA
Report the figure in nM without appending any unit label.

compound: Cc1nc2nonc2c(N)c1Cn1ccc(-c2cncs2)n1 [Example 4.3]
unitText: nM
IC50: 0.12
--
compound: Cc1nc2nonc2c(N)c1Cn1cc(-c2ccccc2F)cn1 [Example 2.2]
unitText: nM
IC50: 0.23
--
compound: Cc1nc2nonc2c(N)c1Cn1ccc(-c2ccco2)n1 [Example 4.6]
unitText: nM
IC50: 0.17
--
compound: Cc1nc2nonc2c(N)c1Cn1cc(C(F)(F)F)cn1 [Example 1.8]
unitText: nM
IC50: 1.4

Simply: Cc1nc2nonc2c(N)c1Cn1ccc(-c2cccnc2F)n1 [Example 4.1] , human GOAT (Homo sapiens (Human)), IC50 = 0.034
